# ASSAY TEXT: primary screen for activators of insulin secretion dependent on glucose, INS-1E cells, GLuc reporter luminescence (AID 743287);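 also: 0% = median of neutral control wells and 100% = median of IBMX positive control wells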
# PROTOCOL CONDITIONS: INS-1E GLuc reporter insulin secretion, 2-3 h, at 16.6 µM, hits give high values
The whole screen tested about 370,000 compounds, of which about 2,300 (0.62%) were called active. Only a selection was taken, and actives are over-represented in it overall.
Reported activation values follow for various compounds
Answer in %, number only, no unit symbol.

Solved entries (count: 3):
[
  {
    "MOL SMILES": "CN1C(=O)c2cc(NC(=O)Cc3ccccc3)ccc2OC[C@H]2O[C@H](CC(=O)NCc3ccc(Cl)cc3)CC[C@H]21",
    "activation [%]": -7.02
  },
  {
    "MOL SMILES": "Cc1ccc(C)c(NC(=O)NNC(=O)c2ccc3ccccc3c2O)c1",
    "activation [%]": -0.162
  },
  {
    "MOL SMILES": "C[C@@H]1CN([C@@H](C)CO)C(=O)Cc2cc(NC(=O)Cc3ccccc3)ccc2O[C@H]1CN(C)Cc1ccc(C(=O)O)cc1",
    "activation [%]": 12.1
  }
]

Could you now consider this next compound?
Inquiry: I'd like to know its activation. The compound in question is Cc1ccc(-c2cc(C(=O)Nc3nn[nH]n3)c3ccccc3n2)c(C)c1
Reply text: 63.4
